Reported inhibition at 0.1 µM values for a set of molecules
- System name: human TRPV1 (Homo sapiens, UniProt Q8NER1)
- Sequence (Q8NER1 whole entry): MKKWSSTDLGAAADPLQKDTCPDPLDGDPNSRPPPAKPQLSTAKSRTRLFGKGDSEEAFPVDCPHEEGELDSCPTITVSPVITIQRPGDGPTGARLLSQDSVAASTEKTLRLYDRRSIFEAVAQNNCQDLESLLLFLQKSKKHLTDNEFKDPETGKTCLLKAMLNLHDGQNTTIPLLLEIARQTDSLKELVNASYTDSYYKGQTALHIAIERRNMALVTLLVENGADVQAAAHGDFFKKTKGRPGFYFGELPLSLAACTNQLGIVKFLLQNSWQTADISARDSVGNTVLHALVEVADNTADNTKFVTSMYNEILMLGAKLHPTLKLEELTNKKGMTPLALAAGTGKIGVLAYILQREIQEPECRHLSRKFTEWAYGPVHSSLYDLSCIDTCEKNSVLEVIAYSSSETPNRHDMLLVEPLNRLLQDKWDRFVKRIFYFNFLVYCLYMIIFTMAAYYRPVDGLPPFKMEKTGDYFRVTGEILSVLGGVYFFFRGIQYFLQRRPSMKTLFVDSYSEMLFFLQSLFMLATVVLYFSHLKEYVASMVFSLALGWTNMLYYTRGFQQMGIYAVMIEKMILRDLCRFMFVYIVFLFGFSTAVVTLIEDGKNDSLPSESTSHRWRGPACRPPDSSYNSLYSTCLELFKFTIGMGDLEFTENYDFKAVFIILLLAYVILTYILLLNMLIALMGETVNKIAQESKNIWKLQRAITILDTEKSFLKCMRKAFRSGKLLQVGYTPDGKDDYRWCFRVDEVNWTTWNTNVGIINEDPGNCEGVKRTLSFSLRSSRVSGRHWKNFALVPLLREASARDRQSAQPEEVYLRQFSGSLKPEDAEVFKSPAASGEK
- Measurement notes: TRPV1 agonist and antagonist Ca2+ flux assay (FLIPR, Fluo-8) in HEK293 cells stably expressing human TRPV1
- Assay type: cell-based
- Protocol conditions: HEK293; read-out: hTRPV1 % Inhibition (n = 3)

# Molecule, System name, inhibition at 0.1 µM (%)
measured = [
    ("O=C(NC1CCC2CCCCC2C1)c1ccc(-c2ccccc2)cc1 (mixture of isomers)", "human TRPV1 (Homo sapiens, UniProt Q8NER1)", 2),
    ("O=C(NC1CCC2(CCCCC2)CC1)c1ccc(-c2ccccc2)cc1", "human TRPV1 (Homo sapiens, UniProt Q8NER1)", -3),
    ("O=C(NC1CCCCCC1)c1ccc(-c2ccccc2)cc1", "human TRPV1 (Homo sapiens, UniProt Q8NER1)", -3),
    ("O=C(NC1CCCCCCC1)c1ccc(-c2ccccc2)cc1", "human TRPV1 (Homo sapiens, UniProt Q8NER1)", -4),
]
